Values compiled from patent US12077503B2.

tested on: wheat (Triticum aestivum); test: Test A postemergence; type: in vivo; settings: Triticum aestivum, post-emergence, 240 h, Postemergence, 500 g ai/ha; visual injury, 0 to 100 scale (0 no effect, 100 complete control), approx. 10 d; read-out: Plant response rating, Wheat
Text: […]
Please provide measured plant injury at 500 g/ha for the entries that follow.
Reply with the number and its unit after it.

Form: item CN1C[C@H](c2ccc(C(F)(F)F)cc2)[C@@H](C(=O)Nc2ccccc2C#N)C1=O [Compound 1379] ; test system wheat (Triticum aestivum); plant injury at 500 g/ha: 50%

Form: item Cc1cc([C@H]2CNC(=O)[C@@H]2C(=O)Nc2ccccc2S(C)(=O)=O)ccc1Cl [Compound 1246] ; test system wheat (Triticum aestivum); plant injury at 500 g/ha: 40%

Form: item O=C1NC[C@H](c2cncs2)[C@H]1C(=O)Nc1cccc(F)c1F [Compound 1336] ; test system wheat (Triticum aestivum); plant injury at 500 g/ha: 0%

Form: item Cc1nc([C@H]2CN(C)C(=O)[C@@H]2C(=O)Nc2ccccc2F)cs1 [Compound 1280] ; test system wheat (Triticum aestivum); plant injury at 500 g/ha: 0%

Form: item CN1C[C@H](c2cccc(C(F)(F)F)c2)[C@@H](C(=O)Nc2ccc(F)cc2C(F)(F)F)C1=O [Compound 1250] ; test system wheat (Triticum aestivum); plant injury at 500 g/ha: 70%

Form: item O=C1NCC(c2ccccc2)C1C(=O)Nc1ccc(C(F)(F)F)cc1 (stereo not drawn) [Compound 1362] ; test system wheat (Triticum aestivum); plant injury at 500 g/ha: 0%

###

test system: redroot pigweed (Amaranthus retroflexus); test: Test G Pre-Emergence Protocol; assay type: in vivo; details: Amaranthus retroflexus, pre-emergence, 312 h, 250 g ai/ha, evaluated after 13 days, read-out: Pigweed, Redroot damage rating (100=total damage to plant; 0=no damage to plant)
Class yes: pest or weed control at 250 g/ha at least 10%. Class no: pest or weed control at 250 g/ha below 10%.

stdin: Could you tell me if the measured pest or weed control at 250 g/ha of CN1C[C@@H](c2ccc(CO)cc2)[C@H](C(=O)Nc2cccc(F)c2F)C1=O (racemic) reaches 10% or more?
stdout: no

stdin: Could you tell me if the measured pest or weed control at 250 g/ha of Cc1cccc(NC(=O)[C@H]2C(=O)N(C)C[C@@H]2c2ccc(C(F)(F)F)cc2)c1C#N (racemic) reaches 10% or more?
stdout: yes

stdin: Could you tell me if the measured pest or weed control at 250 g/ha of C#Cc1ccccc1NC(=O)[C@H]1C(=O)N(C)C[C@@H]1c1ccc(C(F)(F)F)cc1 (racemic) reaches 10% or more?
stdout: no

stdin: Could you tell me if the measured pest or weed control at 250 g/ha of CN1C[C@@H](c2ccc(C(F)(F)F)cc2)[C@H](C(=O)Nc2ccccc2C#N)C1=O (racemic) reaches 10% or more?
stdout: yes

stdin: Could you tell me if the measured pest or weed control at 250 g/ha of CN1C[C@@H](c2ccc(C(F)(F)F)cc2)[C@H](C(=O)Nc2ccccc2Cl)C1=O (racemic) reaches 10% or more?
stdout: yes

stdin: Could you tell me if the measured pest or weed control at 250 g/ha of CN1C[C@@H](c2cccc(C(F)(F)F)c2)[C@H](C(=O)Nc2cccnc2F)C1=O reaches 10% or more?
stdout: no

stdin: Could you tell me if the measured pest or weed control at 250 g/ha of Cc1n[nH]cc1NC(=O)[C@@H]1C(=O)N(C)C[C@H]1c1ccc(C(F)(F)F)cc1 (racemic) reaches 10% or more?
stdout: no

stdin: Could you tell me if the measured pest or weed control at 250 g/ha of Cc1cc(NC(=O)[C@@H]2C(=O)N(C)C[C@H]2c2ccc(C(F)(F)F)cc2)[nH]n1 (racemic) reaches 10% or more?
stdout: no

###

Please provide measured pest or weed control at 250 g/ha for the entries that follow.
test system: barnyardgrass (Echinochloa crus-galli); experiment: Test G Pre-Emergence Protocol; format: in vivo; conditions: Echinochloa crus-galli, pre-emergence, 312 h, 250 g ai/ha, evaluated after 13 days, read-out: Barnyardgrass damage rating (100=total damage to plant; 0=no damage to plant)

# pest or weed control at 250 g/ha of CN1C[C@@H](c2ccc(C(F)(F)F)cc2)[C@H](C(=O)Nc2cnnc(Cl)c2Cl)C1=O (racemic) = 0%

# pest or weed control at 250 g/ha of CN1C[C@H](c2ccc(C(F)(F)F)cc2)[C@@H](C(=O)Nc2cccc(F)n2)C1=O (racemic) = 80%

# pest or weed control at 250 g/ha of Cc1cc([C@H]2CN(C)C(=O)[C@@H]2C(=O)Nc2cccc(F)n2)cc(C(F)(F)F)c1 (racemic) = 90%

# pest or weed control at 250 g/ha of Cc1nonc1NC(=O)[C@@H]1C(=O)N(C)C[C@H]1c1ccc(C(F)(F)F)cc1 (racemic) = 0%

# pest or weed control at 250 g/ha of C=Cc1ccc([C@H]2CN(C)C(=O)[C@@H]2C(=O)Nc2ccccc2F)cc1 (racemic) = 50%

# pest or weed control at 250 g/ha of CN1C[C@H](c2ccc(C(F)(F)F)cc2)[C@@H](C(=O)Nc2cccc3nsnc23)C1=O (racemic) = 60%

# pest or weed control at 250 g/ha of Cc1c(Br)cccc1NC(=O)[C@@H]1C(=O)N(C)C[C@H]1c1ccc(C(F)(F)F)cc1 (racemic) = 10%

# pest or weed control at 250 g/ha of CN1C[C@@H](c2cccc(C(F)(F)F)c2)[C@H](C(=O)Nc2cccnc2F)C1=O = 0%

# pest or weed control at 250 g/ha of CC1OC(=O)c2c(NC(=O)[C@H]3C(=O)N(C)C[C@@H]3c3ccc(C(F)(F)F)cc3)cccc21 (mixture of isomers) = 0%

# pest or weed control at 250 g/ha of CCOc1cc(C2CN(C)C(=O)C2C(=O)Nc2cccc(F)c2F)ccc1Cl (stereo not drawn) = 70%

# pest or weed control at 250 g/ha of CN1C[C@@H](c2ccc(C(F)(F)F)cc2)[C@H](C(=O)Nc2ncc[nH]2)C1=O (racemic) = 0%

# pest or weed control at 250 g/ha of CN1C[C@H](c2cccc(C(C)(C)C#N)c2)[C@@H](C(=O)Nc2cccc(F)c2F)C1=O (racemic) = 80%

###

system: ryegrass, Italian (Italian ryegrass, Lolium multiflorum); experiment: Test A postemergence; type: in vivo; settings: 500 g ai/ha, postemergence; 0 to 100 scale, 0 no effect, 100 complete control
OBSERVED PROPERTY: Plant response rating, Ryegrass, Italian
The answer should be a number; do not append a unit.

Form: item Cc1cccc(C2CNC(=O)C2C(=O)Nc2ccccc2C(F)(F)F)c1 (racemic) ; test system ryegrass, Italian (Italian ryegrass, Lolium multiflorum); Plant response rating, Ryegrass, Italian: 0

Form: item Cc1cccc(NC(=O)C2C(=O)NCC2c2cccc(OC(F)F)c2)c1F (stereo not drawn) ; test system ryegrass, Italian (Italian ryegrass, Lolium multiflorum); Plant response rating, Ryegrass, Italian: 0

Form: item O=C1NCC(c2cccc(F)c2)C1C(=O)Nc1cccc(F)c1F (racemic) ; test system ryegrass, Italian (Italian ryegrass, Lolium multiflorum); Plant response rating, Ryegrass, Italian: 20

Form: item Cc1c(F)ccc(NC(=O)C2C(=O)NCC2c2cc(F)cc(F)c2)c1F (stereo not drawn) ; test system ryegrass, Italian (Italian ryegrass, Lolium multiflorum); Plant response rating, Ryegrass, Italian: 20

Form: item CN1CC(c2ccc(F)cc2)C(C(=O)Nc2ccc(F)cc2F)C1=O (stereo not drawn) ; test system ryegrass, Italian (Italian ryegrass, Lolium multiflorum); Plant response rating, Ryegrass, Italian: 60

Form: item CN1CC(c2ccc(C(F)(F)F)c(F)c2)C(C(=O)Nc2ccccc2F)C1=O (stereo not drawn) ; test system ryegrass, Italian (Italian ryegrass, Lolium multiflorum); Plant response rating, Ryegrass, Italian: 40

###

test system: ragweed (common ragweed, Ambrosia elatior); assay: Test A preemergence; format: in vivo; details: 125 g ai/ha, Preemergence; visual injury after approximately 10 d; 0 to 100 scale where 0 is no effect and 100 is complete control
OBSERVED PROPERTY: Plant response rating, Ragweed
The answer should be a number; do not append a unit.

# Plant response rating, Ragweed of Cc1cccc(C2CN(C)C(=O)C2C(=O)Nc2ccccc2F)c1 (centres unmarked) = 0

# Plant response rating, Ragweed of O=C1NCC(c2ccc(C(F)(F)F)c(F)c2)C1C(=O)Nc1cccc(F)c1F (racemic) = 40

# Plant response rating, Ragweed of CN1CC(c2cccc(OC(F)F)c2)C(C(=O)Nc2ccc(F)cc2F)C1=O (centres unmarked) = 30

# Plant response rating, Ragweed of COc1c(F)ccc(NC(=O)C2C(=O)NCC2c2cccc(OC(F)(F)C(F)F)c2)c1F (racemic) = 0

# Plant response rating, Ragweed of CN1CC(c2ccc(C(F)(F)F)cc2F)C(C(=O)Nc2ccc(F)cc2F)C1=O (centres unmarked) = 0

# Plant response rating, Ragweed of Cc1ccc(C2CN(C)C(=O)C2C(=O)Nc2ccccc2F)cc1 (centres unmarked) = 70

# Plant response rating, Ragweed of O=C1NCC(c2ccnc(C(F)(F)F)c2)C1C(=O)Nc1ccccc1F (racemic) = 0

# Plant response rating, Ragweed of O=C1NCC(c2cc(C(F)(F)F)cc(C(F)(F)F)c2)C1C(=O)Nc1ccccc1F (centres unmarked) = 0
